- assay system: human Fc (human)
- assay procedure: ELISA, negative control
measurement kind: optical density (OD)
Quick reminder: number only, in OD, skip the unit.

stdin: Name the recorded optical density of the item 372_B11 (antibody, V domains shown) VH: EVQLLESGGGLVQPGGSLRLSCAASGFTFSSYSMHWVRQAPGKGLEWVAGINYNSGYTSYADSVKGRFTISRDNSKNTLYLQMNSLRAEDTAVYYCARAANWHDTHLDYWGQGTLVTVSS VL: DIQMTQSPSSLSASVGDRVTITCRASQSILTYVNWYQQKPGKAPKLVIYAATSLASGVPSRFSGSGSGTDFTLTISSLQPEDFATYYCQQSYDTPLTFGGGTKVEIK in your answer.
stdout: 0.438

stdin: State, in one line, measured optical density of 367_A11 (antibody, V domains shown) VH: EVQLLESGGGLVQPGGSLRLSCAASGFTFSSYGMHWVRQAPGKGLEWVSGINYNGGYTSYADSVKGRFTISRDNSKNTLYLQMNSLRAEDTAVYYCARSATWHDTHLDYWGQGTLVTVSS VL: DIQMTQSPSSLSASVGDRVTITCRASQSILSYVNWYQQKPGKAPKLVIYATTSLASGVPSRFSGSGSGTDFTLTISSLQPEDFATYYCQQSYNSPLTFGGGTKVEIK
stdout: 0.3

stdin: Return the recorded optical density value; entry: 374_C09 (antibody, V domains shown) VH: EVQLLESGGGLVQPGGSLRLSCAASGFTFDSYGMNWVRQAPGKGLEWVSSINYNGGYKGYADSVKGRFTISRDNSKNTLYLQMNSLRAEDTAVYYCARGANWHDTHLDYWGQGTLVTVSS VL: DIQMTQSPSSLSASVGDRVTITCRASQSIVSYLNWYQQKPGKAPKLVIYAATSRASGVPSRFSGSGSGTDFTLTISSLQPEDFATYYCQQSYELPLTFGGGTKVEIK
stdout: 0.154

Reference source for all entries: patent US20210380703A1
